Test Name: in vitro
Design: Viability of infected HeLa host cells, resazurin conversion, bulk resorufin fluorescence relative to DMSO
Condition Label: human, hela cells; bulk resorufin, mean of 3
Measure Name: viability at 28.5 h, 0.00375 µM (%)
The reply should contain only the number, in %.

{"columns": ["Compound", "U", "viability at 28.5 h, 0.00375 µM"],
 "data": [
  ["C1=C(CCNCCc2ccccc2)c2ccccc2C12CCCC2 [c51e]", "%", 101],
  ["CC(=O)Nc1ccc(-c2cccc(COC3CCN(C(=O)c4ccc(OC(C)C)cc4)CC3)c2)cc1 [c36e]", "%", 90.5],
  ["COc1ccc2cc3c(nc2c1)OC(=O)N(CC1CC1)C3 [c32e]", "%", 91.5],
  ["COCCNc1nc2c(c(N3CCCCCC3)n1)CCNCC2 [c18e]", "%", 109],
  ["O=C(Nc1ccc(OC(F)(F)F)cc1)Nc1cc(-c2cccs2)n[nH]1 [c26e]", "%", 99.3],
  ["O=C(N/N=C\\c1ccc([N+](=O)[O-])o1)c1nc(-c2ccccc2)cc(-c2ccccc2)n1 [c3e]", "%", 88.3],
  ["O=C(c1ccc(-c2ccc(F)cc2)o1)N1C[C@H]2CC[C@](O)(c3ccc(F)cc3)[C@H]2C1 [c2e]", "%", 93.6],
  ["Cc1cccc(-c2ccc(CC3(C(N)=O)CCN(C(=O)CCc4ccccc4)CC3)cc2)c1 [c38e]", "%", 96.8]
]}

Form: compound = CN(C)c1ccc(Nc2nc(NCCO)c3ccccc3n2)cc1 [c27e] ; viability at 28.5 h, 0.00375 µM = 89.8

Form: compound = O=C(NCCCn1ccnc1)c1cc(-c2cccc(Br)c2)nc2ccccc12 [c50e] ; viability at 28.5 h, 0.00375 µM = 90.1

Form: compound = Cc1cccc(OCC(C)NC(=O)NCCc2cnn(C)c2)c1 (stereo not drawn) [c47e] ; viability at 28.5 h, 0.00375 µM = 102

Form: compound = O=[N+]([O-])c1ccc2[nH]c3c(c2c1)CCCC3NC1CCN(CCc2ccccc2)CC1 (stereo not drawn) [c23e] ; viability at 28.5 h, 0.00375 µM = 91.9

Form: compound = Cc1noc(-c2ccc3c(c2O)OCCO3)c1-c1ccc(Cl)cc1 [c20e] ; viability at 28.5 h, 0.00375 µM = 93.1

Form: compound = OCCNc1nc(Nc2ccc(Br)cc2)nc2ccccc12 [c17e] ; viability at 28.5 h, 0.00375 µM = 86.4

Form: compound = Oc1ccccc1Nc1nc(NC2CCCC2)c2ccccc2n1 [c49e] ; viability at 28.5 h, 0.00375 µM = 87.6

====

Test Name: in vitro
Condition Label: human, hela cells, % viability
Measure Name: viability at 28.5 h, 10 µM (%)
The reply should contain only the number, in %.

{"columns": ["Compound", "viability at 28.5 h, 10 µM / %"],
 "data": [
  ["O=C(NCCn1nc(-c2ccco2)ccc1=O)C1CCCCC1 [CBK283743]", 105],
  ["COc1ccc(C2CCCN2C(=O)CC2CCN(C(=O)CC3CCCCC3)CC2)cc1 (centres unmarked) [CBK286263]", 102],
  ["COc1nccnc1/C=C/c1ccccc1 [CBK106876]", 115],
  ["OCCOc1ccccc1N1CCOCC1 [CBK001767C]", 116]
]}

Form: compound = CC(=O)Nc1cccc(C(=O)N2CCCC2c2ccncc2)c1 (centres unmarked) [CBK305080] ; viability at 28.5 h, 10 µM = 96.5

Form: compound = Cc1ccccc1CN(C)C(C)C(=O)Nc1ccc(S(N)(=O)=O)cc1 (centres unmarked) [CBK304589] ; viability at 28.5 h, 10 µM = 91.7

Form: compound = O=C(c1ccccc1)N1CCCC1c1n[nH]cc1-c1ccncc1 (centres unmarked) [CBK283433] ; viability at 28.5 h, 10 µM = 88.5

Form: compound = CCOc1ccsc1C(=O)Nc1cc(C)ccn1 [CBK004029] ; viability at 28.5 h, 10 µM = 88.3

Form: compound = Clc1ccccc1-c1nccnc1OCCOc1ccccc1 [CBK107011] ; viability at 28.5 h, 10 µM = 95.9

Form: compound = O=C(C1CCC1)N1C2CCC1CC(O)(c1ccc(F)cc1)C2 (centres unmarked) [CBK283547] ; viability at 28.5 h, 10 µM = 92.5

Form: compound = CC(C)(CN)CN(Cc1cccc2ccccc12)C(=O)NC1C[C@H]1c1ccccc1 (some centres unmarked) [CBK000490C] ; viability at 28.5 h, 10 µM = 94.7
